# assay_protocol: chemical genetic growth profiling, strain panel (AID 1159580);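 also: tested at 20 µM; growth read once vehicle control cultures reached saturation at 30 °C; 1 = growth at the plate median or of vehicle wells; lower values mean less growth of the strain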
# protocol_conditions: S. cerevisiae deletion strains, growth OD, locus YNL006W, strain LST8
The campaign covered roughly 5,500 compounds. About 2,000 (36%) were called active. About 18% were inconclusive and are not listed. Rule as the data show it: active = normalized growth mostly below about 0.91 (no sharp cut-off); inconclusive = no clear call, values can overlap the other calls; inactive = mostly above about 0.92. Some of the results follow.
The categories you may choose from are T for active, F for inactive

Incoming: What is the recorded call for this molecule in the test? O=S(=O)(Oc1ccc(-c2csnn2)cc1)c1ccccc1Cl
Outgoing: F

Incoming: For C#CCSC1=NNC(c2ccccn2)S1 (stereo unspecified) , which call appears in the assay record?
Outgoing: T

Incoming: Lab log entry: Cc1onc(-c2c(Cl)cccc2Cl)c1C(=O)O/N=C(/N)Cc1ccc(C(C)(C)C)cc1 — outcome as called in the assay?
Outgoing: F

Incoming: Assay outcome for CC(C)(C)c1cc(C(=O)NNc2cccc(Cl)c2)n(Cc2ccccc2)n1 : what was it?
Outgoing: F

Incoming: Dear all, I need the recorded test outcome for CSc1n[nH]c(-c2cc(C(C)(C)C)oc2C)c1C#N , thank you.
Outgoing: F

Incoming: Hi, do you know how Cc1onc(-c2c(F)cccc2Cl)c1/C(N)=N\OC(=O)c1ccc(C(C)(C)C)cc1 came out in this test?
Outgoing: F

Incoming: Assay outcome for O=C(CSC1=NNC(c2ccccn2)S1)Nc1ccccc1 (stereo unspecified) : what was it?
Outgoing: F

Incoming: Call for entry O=[N+]([O-])c1cccc(C2CC(c3ccccc3)=Nc3ccccc3S2)c1 (stereo unspecified) :
Outgoing: F

Incoming: Look up the recorded call for NC(=S)N/N=C1/CCCc2ccccc21 in this test.
Outgoing: F

Incoming: Each molecule tested received a call. Report the one for O=C1c2cccc3c(Sc4ccccc4)ccc(c23)C(=O)N1NCCO .
Outgoing: F

Incoming: How did this test come out for O=C(NOC(=O)c1ccccc1)c1ccccc1 ?
Outgoing: T

* * *

# assay_protocol: chemical genetic growth profiling, strain panel (AID 1159580);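 also: tested at 20 µM; growth read once vehicle control cultures reached saturation at 30 °C; 1 = growth at the plate median or of vehicle wells; lower values mean less growth of the strain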
# protocol_conditions: S. cerevisiae deletion strains, growth OD, locus YCL061C, strain MRC1, active compounds read low
The whole screen tested about 5,500 compounds, of which about 2,000 (36%) were called active. Roughly 18% stayed inconclusive and do not appear here. The list shows a part of the results.
experimental_readout: normalized growth
Respond with the number and no other words.

Incoming: For CN(C)CCCN1c2ccccc2CCc2ccccc21 , write its normalized growth.
Outgoing: 0.997

Incoming: State its normalized growth for this compound: N=C(N)N
Outgoing: 0.996

Incoming: Please give the documented normalized growth of C[C@H](CCC(=O)O)[C@H]1CCC2C3C(=O)CC4CC(=O)CC[C@]4(C)C3CC(=O)[C@@]21C (some centres undefined)
Outgoing: 0.972

Incoming: Output measured normalized growth for this item: CC12CCC3C(CC3(C)C)C(C)(CCC1=O)O2 (centres undefined)
Outgoing: 1.01

Incoming: Report normalized growth, nothing else, for this compound: CC(C)=CCc1c2c(c3occ(-c4ccc(O)cc4)c(=O)c3c1O)C=CC(C)(C)O2
Outgoing: 0.947

Incoming: Supply measured normalized growth of COC1CC2CCC(C)C(O)(O2)C(=O)C(=O)N2CCCCC2C(=O)OC(C(C)CC2CCC(O)C(OC)C2)CC(=O)C(C)/C=C(\C)C(O)C(OC)C(=O)C(C)CC(C)/C=C/C=C/C=C/1C (centres undefined) in your reply.
Outgoing: 0.0664

Incoming: Retrieve normalized growth measured for CC(CCC(=O)O)[C@H]1CCC2C3C(=O)C[C@@H]4CC(=O)CC[C@]4(C)C3CC(=O)[C@@]21C (some centres undefined) and print it.
Outgoing: 0.987

Incoming: Indicate its recorded normalized growth; the compound in question is CO[C@H]1CC(O[C@@H]2/C(C)=C/C[C@@H]3C[C@@H](C[C@]4(CC[C@H](C)[C@@H](C5CCCCC5)O4)O3)OC(=O)[C@@H]3C=C(C)/C(=N\O)[C@H]4OC/C(=C\C=C\[C@@H]2C)[C@]43O)O[C@@H](C)C1O (some centres undefined)
Outgoing: 1.02

Incoming: Using the record for COC(=O)c1ccc(S(=O)(=O)N2CCC(C(N)=O)CC2)n1C , state its measured normalized growth.
Outgoing: 0.99

Incoming: Tell us which normalized growth value is on record for CC1(C)CC2C1CC[C@]1(C)CCC3C(C(=O)O)CC(=O)O[C@@]32C1 (some centres undefined)
Outgoing: 1.03

Incoming: Supply reported normalized growth belonging to this compound: CC(=O)OCC(=O)[C@@]1(O)[C@H](C)CC2C3CCC4=CC(=O)C=C[C@]4(C)[C@@]3(F)[C@@H](O)C[C@@]21C (some centres undefined)
Outgoing: 0.98

Incoming: Determine its reported normalized growth: CN(C)CCCN1c2ccccc2Sc2ccccc21
Outgoing: 0.993

Incoming: Find the measured normalized growth of O=P1(N(CCCl)CCCl)NCCCO1 (centres undefined) and report it.
Outgoing: 1

Incoming: Please give the documented normalized growth of CC(=O)O[C@H]1CCC2(C)C3=C(CCC2C1(C)C)[C@@]1(C)CC[C@@H](C(C)CCC=C(C)C)[C@]1(C)CC3 (some centres undefined)
Outgoing: 1.04

Incoming: Could you please provide reported normalized growth for CCC(C)C(=O)OC1[C@@H]2CC3=C4CC(=O)O[C@@H](c5ccoc5)[C@]4(C)CCC3[C@@](C)(C2=O)[C@@H](CC(=O)OC)C1(C)C (some centres undefined) ? Thanks!
Outgoing: 1

Incoming: Please give the documented normalized growth of CC(C)(C)NC[C@H](O)c1ccc(O)c(CO)c1
Outgoing: 1.01

Incoming: Item O=C1NC(O)=NC1(c1ccccc1)c1ccccc1 : provide normalized growth
Outgoing: 1.01

Incoming: Check the records and state normalized growth for CC(CCC(=O)O)[C@H]1CCC2C3CC[C@@H]4C[C@H](O)CC[C@]4(C)C3C=C[C@@]21C (some centres undefined)
Outgoing: 0.989

Incoming: Please report the measured normalized growth for COc1ccc2cc(CCC(C)=O)ccc2c1
Outgoing: 1

* * *

# assay_protocol: chemical genetic growth profiling, strain panel (AID 1159580);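 also: tested at 20 µM; growth read once vehicle control cultures reached saturation at 30 °C; 1 = growth at the plate median or of vehicle wells; lower values mean less growth of the strain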
# protocol_conditions: S. cerevisiae deletion strains, growth OD, locus YKL085W, strain MDH1, active compounds read low
The whole screen tested about 5,500 compounds, of which about 2,000 (36%) were called active. Not shown: some 18% with an inconclusive outcome. The list shows a part of the results.
I'd be grateful if you could share measured normalized growth for these entries.

Incoming: Input CCC(C)C(=O)OC1[C@@H]2CC3=C4CC(=O)O[C@@H](c5ccoc5)[C@]4(C)CCC3[C@@](C)(C2=O)[C@@H](CC(=O)OC)C1(C)C (stereo partly specified) , output reported normalized growth.
Outgoing: 0.988 (inactive)

Incoming: Find the measured normalized growth of C=C(C)C1CCC(C)(O)C2CC3OC3(C)C2C1 (stereo unspecified) and report it.
Outgoing: 1 (inactive)

Incoming: Return normalized growth for the following compound: CN(C)CCCN1c2ccccc2Sc2ccc(Cl)cc21
Outgoing: 0.975 (inactive)

Incoming: Using the record for CC(=O)O[C@@H]1CC2C(C)(C)[C@H](O)C=C[C@]2(C)C2CC[C@]3(C)C(=CC(=O)O[C@H]3c3ccoc3)[C@@]21C (stereo partly specified) , state its measured normalized growth.
Outgoing: 0.997 (inactive)

Incoming: Complete the entry with normalized growth for Cc1cc(=O)oc2cc(O)c(O)cc12
Outgoing: 1.02 (inactive)

Incoming: In one line, give reported normalized growth of the entry CN(C)CCCN1c2ccccc2CCc2ccc(Cl)cc21 .
Outgoing: 0.994 (inactive)

* * *

Kindly supply the reported normalized growth values for the records listed here.
# assay_protocol: chemical genetic growth profiling, strain panel (AID 1159580);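 also: tested at 20 µM; growth read once vehicle control cultures reached saturation at 30 °C; 1 = growth at the plate median or of vehicle wells; lower values mean less growth of the strain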
# protocol_conditions: S. cerevisiae deletion strains, growth OD, locus YPL078C, strain atp4, active compounds read low
Hit rate of the full screen: of about 5,500 compounds, about 2,000 (36%) were called active. Not shown: some 18% with an inconclusive outcome. This is one part of the list.
// return a plain number; no unit text

Incoming: Note down normalized growth recorded for CC1=CC(=O)c2c(O)cccc2C1=O
Outgoing: 0.163

Incoming: Return reported normalized growth. Input compound: CN(C)CCCN1c2ccccc2Sc2ccc(Cl)cc21
Outgoing: 0.586

Incoming: Give the reported normalized growth for this compound. CC1=CC(=O)c2ccccc2C1=O
Outgoing: 0.941

Incoming: Answer with the recorded normalized growth for the compound listed here: COC(=O)c1c(OC)cc2c(c1C)Oc1c(Cl)c(OC(C)=O)c(Cl)c(C)c1C(=O)O2
Outgoing: 0.996

Incoming: Give me measured normalized growth, please, for this compound: CC(C)(C)NCC(O)c1ccc(O)c(CO)c1 (configuration not stated)
Outgoing: 1

Incoming: Complete the entry with normalized growth for CC(C)CCCC(C)C1CCC2C3=CC[C@H]4C[C@@H](O)CC[C@]4(C)C3CC[C@@]21C (some centres not stated)
Outgoing: 0.925

Incoming: Using known records, supply normalized growth for Oc1c(Cl)cc(Cl)cc1Sc1cc(Cl)cc(Cl)c1O
Outgoing: 0.0682

Incoming: For the compound C[C@H](CCC(=O)O)[C@H]1CCC2C3C(=O)CC4CC(=O)CC[C@]4(C)C3CC(=O)[C@@]21C (some centres not stated) , give its measured normalized growth value.
Outgoing: 0.929

Incoming: Give reported normalized growth value for CC(=O)O[C@H]1CC[C@@]2(C)C(=CC(=O)C3C4CCC(C(C)CCCC(C)C)[C@@]4(C)CCC32)C1 (some centres not stated)
Outgoing: 0.995

Incoming: Provide one value: measured normalized growth of CC(C)CCCC(C)C1CCC2C3C[C@@H](O)[C@@]4(O)C[C@@H](O)CC[C@]4(C)C3CC[C@]12C (some centres not stated)
Outgoing: 0.987

Incoming: Indicate its recorded normalized growth; the compound in question is CC(C)CCCC(C)[C@H]1CCC2C3CC=C4CC(=O)CC[C@]4(C)C3CC[C@@]21C (some centres not stated)
Outgoing: 0.951

Incoming: Tell us which normalized growth value is on record for CC(CCC(=O)O)[C@H]1CCC2C3C(=O)C[C@@H]4CC(=O)CC[C@]4(C)C3CC(=O)[C@@]21C (some centres not stated)
Outgoing: 0.98

Incoming: Supply measured normalized growth of CC(C)CCCC(C)C1CCC2C3CC(=O)[C@H]4C[C@@H](O)CC[C@]4(C)C3CC[C@]12C (some centres not stated) in your reply.
Outgoing: 1.02

Incoming: Determine from records and report normalized growth for CCCOc1ccc2nc(NC(=O)OC)[nH]c2c1
Outgoing: 1.02

Incoming: Report measured normalized growth; entry is CC(CCc1ccccc1)NCC(O)c1ccc(O)c(C(N)=O)c1 (configuration not stated)
Outgoing: 1

Incoming: Give normalized growth for the following compound: CN(C)CCCN1c2ccccc2CCc2ccc(Cl)cc21
Outgoing: 0.987

Incoming: Give reported normalized growth value for CS(=O)(=O)c1ccc([C@@H](O)[C@@H](CO)NC(=O)C(Cl)Cl)cc1
Outgoing: 1.04

Incoming: Give the measured normalized growth for CN(C)CCCN1c2ccccc2Sc2ccc(C(F)(F)F)cc21
Outgoing: 0.992

Incoming: Specify measured normalized growth for N[C@@H](CCC(=O)N[C@@H](CS)C(=O)NCC(=O)O)C(=O)O .
Outgoing: 0.972

Incoming: Indicate its recorded normalized growth; the compound in question is CCCSc1ccc2nc(NC(=O)OC)[nH]c2c1
Outgoing: 1.01

Incoming: Consider the compound COC(=O)c1c(C)c2c(c(C)c1O)OC(=O)c1c(C)c(Cl)c(O)c(Cl)c1O2 and give its recorded normalized growth.
Outgoing: 0.964

Incoming: Dear colleague, please send me the reported normalized growth for N=C(N)N when you can.
Outgoing: 1.01

Where do these numbers come from? They come from PubChem BioAssay AID1159580.
